Below, each of the compounds is paired with its reported % Degradation At 0.3 μM value.
STUDY_TARGET: ERα (Homo sapiens, UniProt P03372)
Construct: host or cells: MCF7
ASSAY_COMMENT: Estrogen receptor degradation activity: breast cancer cell ERα in cell western assay
Type: cell-based
EXPERIMENTAL_CONTEXT: MCF7 cells, 4 hours, relative to fulvestrant 0.1 μM positive control
Give just the numeric value; % need not be written.

Cc1ccc(C2=C(c3ccc(CC4CN(CCCF)C4)cc3)c3ccc(C(=O)O)cc3CCC2)cc1C(F)(F)F    93
CC1(C)CCC(C2=C(c3ncc(CC4CN(CCCF)C4)cc3F)c3ccc(C(=O)O)cc3CCC2)CC1    83

Look at this compound and give its reported % Degradation At 0.3 μM. CCc1ccc(C2=C(c3ccc(CC4CN(CCCF)C4)cc3)c3ccc(C(=O)O)cc3CCC2)c(C(F)(F)F)c1
92

Now give it for Cc1cc(C2=C(c3ccc(CC4CN(CCCF)C4)cc3)c3ccc(C(=O)O)cc3CCC2)cc(C(F)(F)F)c1.Cl too.
90

====

STUDY_TARGET: ERα (Homo sapiens)
Construct: host or cells: MCF7
ASSAY_COMMENT: Estrogen receptor degradation activity: breast cancer cell ERα in cell western assay
Format: cell-based
EXPERIMENTAL_CONTEXT: MCF7 cells, 4 hours, relative to fulvestrant 0.1 μM positive control
MEASURE_NAME: % Degradation At 0.3 μM
# output: number + unit

Cc1cc(C2=C(c3ccc(CC4CN(CCCF)C4)cc3)c3ccc(C(=O)O)cc3CCC2)ccc1C(F)F.Cl [Compound 42]    91%
O=C(O)c1ccc2c(c1)CCCC(c1cccc(Cl)c1OC(F)(F)F)=C2c1ccc(CC2CN(CCCF)C2)cc1 [Compound 5]    87%

Look at this compound and give its reported % Degradation At 0.3 μM. CC1(C)CCC(C2=C(c3ncc(CC4CN(CCC(F)F)C4)cc3F)c3ccc(C(=O)O)cc3CCC2)CC1 [Compound 13]
64%

====

STUDY_TARGET: ERα (Homo sapiens)
Construct: host or cells: MCF7
ASSAY_COMMENT: Estrogen receptor degradation activity: breast cancer cell ERα in cell western assay
Assay type: cell-based
EXPERIMENTAL_CONTEXT: MCF7 cells, 4 hours, relative to fulvestrant 0.1 μM positive control
MEASURE_NAME: % Degradation At 0.3 μM (%)
Give just the numeric value; % need not be written.

Here's what some known entries look like.
O=C(O)c1ccc2c(c1)CCCC(c1cccc(C(F)(F)F)c1C(F)(F)F)=C2c1ccc(CC2CN(CCCF)C2)cc1    95
C=Cc1c(F)cccc1C1=C(c2ccc(CC3CN(CCCF)C3)cc2)c2ccc(C(=O)O)cc2CCC1    92
COc1ccc(C2=C(c3ccc(CC4CN(CCCF)C4)cc3)c3ccc(C(=O)O)cc3CCC2)c(C(F)F)c1    92
Cc1cccc(C2=C(c3ccc(CC4CN(CCCF)C4)cc3)c3ccc(C(=O)O)cc3CCC2)c1C(F)F.Cl    90
COc1ccc(C2=C(c3ccc(CC4CN(CCCF)C4)cc3)c3ccc(C(=O)O)cc3CCC2)cc1OC    96

Look at this molecule and give its reported % Degradation At 0.3 μM. COc1cccc(C(F)(F)F)c1C1=C(c2ccc(CC3CN(CCCF)C3)cc2)c2ccc(C(=O)O)cc2CCC1
90

Now give it for O=C(O)c1ccc2c(c1)CCCC(c1cccc3c1CCCC3)=C2c1ccc(CC2CN(CCCF)C2)cc1 too.
86

Now give it for O=C(O)c1ccc2c(c1)CCCC(c1cccc(F)c1OC(F)F)=C2c1ccc(CC2CN(CCCF)C2)cc1 too.
85

Now give it for COc1cccc(C2=C(c3ccc(CC4CN(CCCF)C4)cc3)c3ccc(C(=O)O)cc3CCC2)c1C(F)(F)F too.
86

Now give it for Cl.O=C(O)c1ccc2c(c1)CCCC(c1ccc(C(F)(F)F)cc1C1CC1)=C2c1ccc(CC2CN(CCCF)C2)cc1 too.
91

Now give it for CCc1c(Cl)cccc1C1=C(c2ccc(CC3CN(CCCF)C3)cc2)c2ccc(C(=O)O)cc2CCC1 too.
92

Now give it for Cc1cc(C2=C(c3ccc(CC4CN(CCCF)C4)cc3)c3ccc(C(=O)O)cc3CCC2)ccc1C(F)(F)F too.
93

Now give it for Cc1cccc(C(F)F)c1C1=C(c2ccc(CC3CN(CCCF)C3)cc2)c2ccc(C(=O)O)cc2CCC1 too.
90

Now give it for COc1c(F)ccc(C)c1C1=C(c2ccc(CC3CN(CCCF)C3)cc2)c2ccc(C(=O)O)cc2CCC1 too.
100

Now give it for COc1ccc(C(F)(F)F)cc1C1=C(c2ccc(CC3CN(CCCF)C3)cc2)c2ccc(C(=O)O)cc2CCC1.Cl too.
80

====

Below, each of the compounds is paired with its reported % Degradation At 0.3 μM value.
STUDY_TARGET: ERα (Homo sapiens, UniProt P03372)
Construct: host or cells: MCF7
ASSAY_COMMENT: Estrogen receptor degradation activity: breast cancer cell ERα in cell western assay
Format: cell-based
EXPERIMENTAL_CONTEXT: MCF7 cells, 4 hours, relative to fulvestrant 0.1 μM positive control
Give just the numeric value; % need not be written.

Here's what some known entries look like.
Cc1cc(C)c(C2=C(c3ccc(CC4CN(CCCF)C4)cc3)c3ccc(C(=O)O)cc3CCC2)c(Cl)c1    88
COc1cccc(C2=C(c3ccc(CC4CN(CCCF)C4)cc3)c3ccc(C(=O)O)cc3CCC2)c1C(F)F    89

Look at this compound and give its reported % Degradation At 0.3 μM. COc1ccc(C2=C(c3ccc(CC4CN(CCCF)C4)cc3)c3ccc(C(=O)O)cc3CCC2)cc1C(F)(F)F.Cl
92

Now give it for COc1cc(C)c(C2=C(c3ccc(CC4CN(CCCF)C4)cc3)c3ccc(C(=O)O)cc3CCC2)c(C)c1 too.
95

Now give it for COc1c(C)cccc1C1=C(c2ccc(CC3CN(CCCF)C3)cc2)c2ccc(C(=O)O)cc2CCC1.Cl too.
92

Now give it for Cc1cccc(F)c1C1=C(c2ccc(CC3CN(CCCF)C3)cc2)c2ccc(C(=O)O)cc2CCC1.Cl too.
91

Now give it for Cc1ccc(C2=C(c3ccc(CC4CN(CCCF)C4)cc3)c3ccc(C(=O)O)cc3CCC2)c(C)c1F too.
92

====

STUDY_TARGET: ERα (Homo sapiens, UniProt P03372)
Construct: host or cells: MCF7
Sequence (P03372 1-595): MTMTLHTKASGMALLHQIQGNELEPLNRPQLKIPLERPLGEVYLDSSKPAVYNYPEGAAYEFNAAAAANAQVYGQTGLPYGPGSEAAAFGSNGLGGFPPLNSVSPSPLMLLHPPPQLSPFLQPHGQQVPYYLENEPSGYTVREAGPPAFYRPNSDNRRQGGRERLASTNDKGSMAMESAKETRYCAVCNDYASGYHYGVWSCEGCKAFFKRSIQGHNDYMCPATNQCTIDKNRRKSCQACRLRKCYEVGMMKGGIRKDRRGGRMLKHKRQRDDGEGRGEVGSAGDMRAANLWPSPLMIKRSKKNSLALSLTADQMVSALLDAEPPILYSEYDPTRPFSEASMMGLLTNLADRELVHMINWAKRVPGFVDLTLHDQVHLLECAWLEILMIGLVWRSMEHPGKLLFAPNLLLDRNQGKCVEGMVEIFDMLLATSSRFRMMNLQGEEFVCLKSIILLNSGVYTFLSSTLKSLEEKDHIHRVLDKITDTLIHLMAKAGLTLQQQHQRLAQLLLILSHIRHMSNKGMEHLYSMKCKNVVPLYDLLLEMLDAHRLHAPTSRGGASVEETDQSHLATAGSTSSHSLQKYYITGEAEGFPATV
ASSAY_COMMENT: Estrogen receptor degradation activity: breast cancer cell ERα in cell western assay
Type: cell-based
EXPERIMENTAL_CONTEXT: MCF7 cells, 4 hours, relative to fulvestrant 0.1 μM positive control
MEASURE_NAME: % Degradation At 0.3 μM (%)
Give just the numeric value; % need not be written.

Here's what some known entries look like.
O=C(O)c1ccc2c(c1)CCCC(c1ccc(C(F)(F)F)c(O)c1)=C2c1ccc(CC2CN(CCCF)C2)cc1    90
Cc1c(OC(F)F)cccc1C1=C(c2ccc(CC3CN(CCCF)C3)cc2)c2ccc(C(=O)O)cc2CCC1    93

Look at this compound and give its reported % Degradation At 0.3 μM. Cc1ccc(C(F)(F)F)c(C2=C(c3ccc(CC4CN(CCCF)C4)cc3)c3ccc(C(=O)O)cc3CCC2)c1.Cl
91

Now give it for COc1cccc(F)c1C1=C(c2ccc(CC3CN(CCCF)C3)cc2)c2ccc(C(=O)O)cc2CCC1 too.
92

Now give it for O=C(O)c1ccc2c(c1)CCCC(c1c(F)cccc1OC(F)(F)F)=C2c1ccc(CC2CN(CCCF)C2)cc1 too.
92

Now give it for COc1cccc(OC)c1C1=C(c2ccc(CC3CN(CCCF)C3)cc2)c2ccc(C(=O)O)cc2CCC1.Cl too.
92

Now give it for COc1ccc(C2=C(c3ccc(CC4CN(CCCF)C4)cc3)c3ccc(C(=O)O)cc3CCC2)c(C(F)(F)F)c1.Cl too.
92

Now give it for CC(F)(F)c1cc(F)ccc1C1=C(c2ccc(CC3CN(CCCF)C3)cc2)c2ccc(C(=O)O)cc2CCC1 too.
95

Now give it for COc1ccc(C(F)F)c(C2=C(c3ccc(CC4CN(CCCF)C4)cc3)c3ccc(C(=O)O)cc3CCC2)c1.Cl too.
95

Cited source: patent US20250263390A1
